Target: JAK3 (Homo sapiens, UniProt P52333)
Construct: All four purified enzymes contain only the catalytic domain; His (N)
Sequence (P52333 822-1111 limits assumed): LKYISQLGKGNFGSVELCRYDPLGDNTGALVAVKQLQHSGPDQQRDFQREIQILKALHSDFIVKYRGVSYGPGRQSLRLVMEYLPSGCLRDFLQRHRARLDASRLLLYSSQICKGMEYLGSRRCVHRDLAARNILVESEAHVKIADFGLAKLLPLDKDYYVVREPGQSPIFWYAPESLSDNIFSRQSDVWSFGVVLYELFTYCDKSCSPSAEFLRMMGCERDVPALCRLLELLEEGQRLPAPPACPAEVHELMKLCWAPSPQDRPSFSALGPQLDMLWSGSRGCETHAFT
Test: JAK kinase assay (HTRF, phosphorylation of synthetic peptide), JAK3
Conditions: catalytic domain, ATP at Km (2 μM); read-out: JAK3 kinase inhibitory activity (EC50)
Readout label: EC50

Worked cases, EC50 given:
Compound	EC50
O=S(=O)(N(CCc1ccccc1)CCn1cccn1)N1CCN(c2ncnc3[nH]ccc23)CC12CC2 [Example 24]	< 100 nM
CN(C[C@@H]1CCCN1C=O)S(=O)(=O)N1CCN(c2ncnc3[nH]ccc23)CC12CC2 [Example 191]	< 100 nM
CN(C[C@@H]1CCCN1C(=O)CO)S(=O)(=O)N1CCN(c2ncnc3[nH]ccc23)CC12CC2 [Example 192]	< 100 nM
CN(C[C@@H]1CC(F)(F)CN1S(=O)(=O)CC1CC1)S(=O)(=O)N1CCN(c2ncnc3[nH]ccc23)CC12CC2 [Example 164]	< 100 nM
CN(C)S(=O)(=O)c1ccc(CN(C)S(=O)(=O)N2CCN(c3ncnc4[nH]ccc34)CC23CC3)o1 [Example 65]	100 to 500 nM
CN(C(=O)C1CCS(=O)(=O)CC1)S(=O)(=O)N1CCN(c2ncnc3[nH]ccc23)CC12CC2 [Example 139]	< 100 nM
CN(Cc1ccc(F)cc1)S(=O)(=O)N1CCN(c2ncnc3[nH]ccc23)CC12CC2 [Example 79]	< 100 nM
CCN(CC1CCC(F)(F)CC1)S(=O)(=O)N1CCN(c2ncnc3[nH]ccc23)CC12CC2 [Example 149]	< 100 nM
CC(C#N)N(C1CCC1)S(=O)(=O)N1CCN(c2ncnc3[nH]ccc23)CC12CC2 (stereo not drawn) [Example 107]	< 100 nM
N#CCN(C1COC1)S(=O)(=O)N1CCN(c2ncnc3[nH]ccc23)CC12CC2 [Example 113]	< 100 nM

stdin: Name the reported EC50 value associated with the compound CN(CC1CCN(C(=O)CCC#N)CC1)S(=O)(=O)N1CCN(c2ncnc3[nH]ccc23)CC12CC2 [Example 152]
stdout: 100 to 500 nM

stdin: Name the reported EC50 value associated with the compound CCCC(C)NS(=O)(=O)N1CCN(c2ncnc3[nH]ccc23)CC12CC2 (stereo not drawn) [Example 143]
stdout: 100 to 500 nM

stdin: Name the reported EC50 value associated with the compound CN(CCCc1cccc(C#N)c1)S(=O)(=O)N1CCN(c2ncnc3[nH]ccc23)CC12CC2 [Example 30]
stdout: 100 to 500 nM

stdin: Name the reported EC50 value associated with the compound CN(C[C@@H]1CC(F)(F)CN1S(C)(=O)=O)S(=O)(=O)N1CCN(c2ncnc3[nH]ccc23)CC12CC2 [Example 162]
stdout: < 100 nM

stdin: Name the reported EC50 value associated with the compound CN(CC1CCN(S(=O)(=O)CC2CC2)C1)S(=O)(=O)N1CCN(c2ncnc3[nH]ccc23)CC12CC2 (stereo not drawn) [Example 122]
stdout: < 100 nM

Data provenance: patent US9233964B2
